Value source: patent US20250171516A1

assay: Metabolite study in human liver S9 (high resolution LC-MS); format: in vitro ADME; details: metabolites of Q-M3190 at 4 hours in human liver S9
MEASURED_PROPERTY: Relative Abundance (% Total)
Please state the figure in % Total; there is no need to write the unit.

Ask: Given the molecule CCc1cc(OCCCCn2cc(COCCOCCOCCOCCOCCOCCOCCOCCNC(=O)CCC(N)C(=O)O)nn2)ccc1-c1ccc(C[C@H](NC(=O)[C@H](CC(=O)O)NC(=O)[C@H](CO)NC(=O)[C@@H](NC(=O)C(C)(Cc2ccccc2F)NC(=O)[C@@H](NC(=O)CNC(=O)[C@H](Cc2nn[nH]n2)NC(=O)C(C)(C)C(=O)NCCc2cnc[nH]2)[C@@H](C)O)[C@@H](C)O)C(=O)N[C@@H](CCCc2cc(C)cc(C)c2)C(N)=O)cc1 (stereo partly shown) [M6067] , what is its reported Relative Abundance (% Total)?
Reply: 56.51

----------
The molecules listed here are annotated with their GLP-1R CAMP Max.
molecular target: GLP-1R (Homo sapiens); assay: GLP-1R cAMP assay of peptides (Tables 10, 14, 15); format: cell-based; details: Table 10
Sequence (P43220 24-463): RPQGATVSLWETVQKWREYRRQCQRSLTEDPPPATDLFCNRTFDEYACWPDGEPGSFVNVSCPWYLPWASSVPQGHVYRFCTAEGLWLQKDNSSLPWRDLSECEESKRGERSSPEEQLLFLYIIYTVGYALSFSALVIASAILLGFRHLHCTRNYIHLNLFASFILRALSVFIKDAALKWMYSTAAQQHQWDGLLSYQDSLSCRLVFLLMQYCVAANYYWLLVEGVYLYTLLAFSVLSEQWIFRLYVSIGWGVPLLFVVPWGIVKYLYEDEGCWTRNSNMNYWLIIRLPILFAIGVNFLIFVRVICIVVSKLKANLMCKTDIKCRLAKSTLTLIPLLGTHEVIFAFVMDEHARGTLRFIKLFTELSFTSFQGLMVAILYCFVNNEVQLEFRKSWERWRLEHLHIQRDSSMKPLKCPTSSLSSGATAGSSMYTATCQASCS
Non-standard residues stand in square brackets, D forms with d. Residues, ends and D or L forms follow the SMILES beside them. ξ: configuration not given here. *: point of attachment. Bip(2'-Et,4'-O(CH2)4N3) = CCc1cc(OCCCCN=[N+]=[N-])ccc1-c1ccc(C[C@H](N)C(=O)O)cc1; Malonyl(2,2-Me2,histaminyl) = CC(C)(C(=O)NCCc1cnc[nH]1)C(=O)*; Nva(5-(3,5-Me2Ph)) = Cc1cc(C)cc(CCC[C@H](N)C(=O)O)c1; Ala(1H-tetrazol-5-yl) = N[C@@H](Cc1nnn[nH]1)C(=O)O; ξαMePhe(2-F) = CC(N)(Cc1ccccc1F)C(=O)O; tBu = CC(C)(C)*
Answer with the value and then the unit.

* CCc1cc(OCCCCn2cc(COCCOCCOCCOCCOCCOCCOCCOCCN)nn2)ccc1-c1ccc(C[C@H](NC(=O)[C@H](CC(=O)O)NC(=O)[C@H](CO)NC(=O)[C@@H](NC(=O)C(C)(Cc2ccccc2F)NC(=O)[C@@H](NC(=O)CNC(=O)[C@H](Cc2nn[nH]n2)NC(=O)C(C)(C)C(=O)NCCc2cnc[nH]2)[C@@H](C)O)[C@@H](C)O)C(=O)N[C@@H](CCCc2cc(C)cc(C)c2)C(=O)O)cc1 (stereo partly drawn) | 139.7%

Ask: Given the molecule C[C@@H](O)[C@H](NC(=O)CNC(=O)[C@H](Cc1nn[nH]n1)NC(=O)C(C)(C)C(=O)NCCc1cnc[nH]1)C(=O)N[C@@](C)(Cc1ccccc1F)C(=O)N[C@H](C(=O)N[C@@H](CO)C(=O)N[C@@H](CC(=O)O)C(=O)O)[C@@H](C)O , what is its reported GLP-1R CAMP Max?
Reply: −0.25%

Ask: # iterate: CCc1cc(OCCCCN=[N+]=[N-])ccc1-c1ccc(C[C@H](NC(=O)[C@H](CC(=O)O)NC(=O)[C@H](COC(C)(C)C)NC(=O)[C@@H](NC(=O)C(C)(Cc2ccccc2F)NC(=O)[C@@H](NC(=O)CNC(=O)[C@H](Cc2nnn[nH]2)NC(=O)C(C)(C)C(=O)NCCc2cnc[nH]2)[C@@H](C)O)[C@@H](C)O)C(=O)N[C@@H](CCCc2cc(C)cc(C)c2)C(=O)O)cc1 (stereo partly drawn) ({Malonyl(2,2-Me2,histaminyl)}-[Ala(1H-tetrazol-5-yl)]GT[ξαMePhe(2-F)]TS(tBu)D[Bip(2'-Et,4'-O(CH2)4N3)][Nva(5-(3,5-Me2Ph))]-OH)
Reply: 122.44%
